Assayed System: CRBN/DDB1 protein (Homo sapiens)
Protocol: Detection of inhibition of CRBN/DDB1 activity by compounds (FRET)
Type: binding
Experimental Conditions: FRET; 5.0 nM CRBN/DDB1, 0.2 nM Anti-6His-Tb, 50.0 nM FITC-labeled thalidomide analogue, 1.0% DMSO, 25° C.; read-out: IC50, inhibition of CRBN/DDB1 protein
Measurement Kind: IC50 (µM)
Lab book: enter the figure in µM, no units written.

Looking up CN1Cn2c(c(C(=O)N3CC4(CC(=O)NC4=O)C3)c3ccccc32)C1=O [Compound B5] , I see its IC50 listed as 0.011

###

# maps each entry to its pIC50
Assayed System: CRBN/DDB1 protein (Homo sapiens, UniProt Q96SW2)
Sequence (Q96SW2 whole entry, species assumed): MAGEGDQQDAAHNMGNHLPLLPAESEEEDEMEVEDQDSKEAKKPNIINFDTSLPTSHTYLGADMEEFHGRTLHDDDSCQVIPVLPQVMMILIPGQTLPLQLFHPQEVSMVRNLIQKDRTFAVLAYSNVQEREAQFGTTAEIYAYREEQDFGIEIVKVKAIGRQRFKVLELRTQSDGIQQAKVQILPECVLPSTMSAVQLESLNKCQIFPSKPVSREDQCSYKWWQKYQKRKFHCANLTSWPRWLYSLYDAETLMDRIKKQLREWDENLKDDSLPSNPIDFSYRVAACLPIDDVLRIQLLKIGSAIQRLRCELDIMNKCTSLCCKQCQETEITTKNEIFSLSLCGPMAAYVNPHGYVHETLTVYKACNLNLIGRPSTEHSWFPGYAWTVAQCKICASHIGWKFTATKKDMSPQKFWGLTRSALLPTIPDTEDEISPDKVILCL
Sequence (Q16531 whole entry partner, species assumed): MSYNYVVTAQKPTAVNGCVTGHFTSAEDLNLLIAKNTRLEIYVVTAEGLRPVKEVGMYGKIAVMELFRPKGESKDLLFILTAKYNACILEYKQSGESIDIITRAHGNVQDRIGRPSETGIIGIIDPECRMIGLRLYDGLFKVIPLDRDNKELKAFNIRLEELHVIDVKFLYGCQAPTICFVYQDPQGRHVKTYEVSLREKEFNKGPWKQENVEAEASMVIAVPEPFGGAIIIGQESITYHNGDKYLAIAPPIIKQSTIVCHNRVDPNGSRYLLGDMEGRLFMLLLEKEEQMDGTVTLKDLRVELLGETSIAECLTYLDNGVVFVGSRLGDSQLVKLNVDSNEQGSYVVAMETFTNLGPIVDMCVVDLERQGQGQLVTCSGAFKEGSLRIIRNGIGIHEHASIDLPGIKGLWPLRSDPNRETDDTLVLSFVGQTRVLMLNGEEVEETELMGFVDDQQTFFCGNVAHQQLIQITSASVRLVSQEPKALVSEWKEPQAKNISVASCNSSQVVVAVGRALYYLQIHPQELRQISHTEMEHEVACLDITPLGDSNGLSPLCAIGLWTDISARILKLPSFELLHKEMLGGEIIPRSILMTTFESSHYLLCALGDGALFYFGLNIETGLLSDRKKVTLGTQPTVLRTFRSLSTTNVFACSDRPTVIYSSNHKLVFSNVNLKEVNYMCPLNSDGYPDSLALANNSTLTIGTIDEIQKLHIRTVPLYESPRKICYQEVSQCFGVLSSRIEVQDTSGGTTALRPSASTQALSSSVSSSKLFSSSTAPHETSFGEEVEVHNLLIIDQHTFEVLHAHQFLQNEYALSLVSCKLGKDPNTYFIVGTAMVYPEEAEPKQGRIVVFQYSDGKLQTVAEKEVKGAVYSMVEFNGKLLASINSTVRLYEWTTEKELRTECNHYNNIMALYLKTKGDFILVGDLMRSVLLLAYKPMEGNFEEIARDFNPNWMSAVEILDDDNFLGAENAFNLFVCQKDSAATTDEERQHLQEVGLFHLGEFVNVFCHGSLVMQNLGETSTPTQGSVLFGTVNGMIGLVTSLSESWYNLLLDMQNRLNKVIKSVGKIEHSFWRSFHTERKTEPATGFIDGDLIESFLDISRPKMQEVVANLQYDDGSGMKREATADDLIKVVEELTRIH
Protocol: Detection of inhibition of CRBN/DDB1 activity by compounds (FRET)
Format: binding
Answer as the number alone; pIC50 is minus log10 of concentration in mol/L.

[[record]]
molecule = "O=C1CC2(CN(C(=O)c3c4n(c5ccccc35)CNC4=O)C2)C(=O)N1 [Compound B4]"
measurement_kind = "pIC50"
result_number = 7.74


Kindly review the next molecule as well.
Looking up O=C1CC2(CN(C(=O)c3c4n(c5ccccc35)C=NC4=O)C2)C(=O)N1 [Compound B3] , I see its pIC50 listed as 7.37
